# Method description: chemical genetic growth profiling, strain panel (AID 1159580);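 also: tested at 20 µM; growth read once vehicle control cultures reached saturation at 30 °C; 1 = growth at the plate median or of vehicle wells; lower values mean less growth of the strain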
# Assay context: S. cerevisiae deletion strains, growth OD, locus YDR335W, strain msn5, active compounds read low
About 2,000 (36%) of roughly 5,500 compounds were called active. Another 18% or so got no clear call; they are omitted. The list shows a part of the results.
Exam item: assign class 1 to entries whose normalized growth is below 1 and class 0 to entries at or above 1. Note that a value of exactly 1 receives class 0.

CCCCCCCCCCCCCCCC(=O)OC/C=C(C)/C=C/C=C(C)/C=C/C1=C(C)CCCC1(C)C : class 0
CN(C)C(=S)SSC(=S)N(C)C : class 1
CC1=C(/C=C/C(C)=C/C=C/C(C)=C/C=C/C=C(C)/C=C/C=C(C)/C=C/C2=C(C)C(=O)C(O)CC2(C)C)C(C)(C)CC(O)C1=O (stereo not given) : class 0

Exercise: Threshold test, normalized growth < 1: `CC1=C(/C=C/C(C)=C/C=C/C(C)=C/C=C/C=C(C)/C=C/C=C(C)/C=C/C(=O)[C@]2(C)C[C@@H](O)CC2(C)C)C(C)(C)C[C@H](O)C1`
Key: class 0
